These measurements were taken from the METLIN SMRT retention time set (Domingo-Almenara et al. 2019).

test: gradient 5% acetonitrile 3 min, to 50% in 2 min, to 85% in 15 min, held 3 min, 100 µL/min; conditions: column: Zorbax Extend-C18 2.1 x 50 mm; eluents: water / acetonitrile, 0.1% formic acid
Entries and their RP-LC retention time values follow.
measurement-label: RP-LC retention time (s)

{"columns": ["compound", "measured-number"],
 "data": [
  ["CCc1ccc(NC(=O)Cn2c(N3CCOCC3)nc(C)cc2=O)cc1", 711],
  ["CCS(=O)(=O)N1CC(=O)N(c2ccc(F)cc2C)C(C)(C(=O)NC2CCCCCC2)C1 (stereo not drawn)", 925],
  ["COc1ccc(-n2nnc(-c3nc(C)c(C(=O)NCc4ccco4)s3)c2C)cc1", 879]
]}

---

assay: gradient 5% acetonitrile 3 min, to 50% in 2 min, to 85% in 15 min, held 3 min, 100 µL/min; settings: column: Zorbax Extend-C18 2.1 x 50 mm; eluents: water / acetonitrile, 0.1% formic acid
// label = yes (1) if RP-LC retention time is not less than 800 s, otherwise no (0)

{"columns": ["molecule", "classification"],
 "data": [
  ["CCC(C)NC(=O)C1CCC(=O)N(c2cc(OC)c(OC)c(OC)c2)C1c1ccc(OC)cc1 (stereo not given)", "no (0)"],
  ["COc1ccc(NC(=O)CSc2nccnc2Sc2ccc(C)cc2)cc1OC", "yes (1)"],
  ["CS(=O)(=O)N1CCC(N2C[C@H](Oc3ccccc3)[C@@H]2c2ccncc2)CC1", "no (0)"],
  ["O=C(Cn1nc(N2CCCC2)c2ccccc2c1=O)NCc1ccccc1", "yes (1)"],
  ["Cc1noc2nc(CCC(=O)NC(C)c3ccccc3)nc(N3CCC(C)CC3)c12 (stereo not given)", "yes (1)"],
  ["CCn1ccc2cc(S(=O)(=O)N3CCCN(C(=O)NC4CCCCC4)CC3)ccc21", "yes (1)"],
  ["Cc1nn(CC(=O)NCCc2c[nH]c3ccccc23)c(=O)c2noc(C)c12", "no (0)"],
  ["Cc1ccc(C)c(NC(=O)NCC(c2cccnc2)c2cn(C)c3ccccc23)c1 (stereo not given)", "no (0)"],
  ["CC(C)Cc1nc2nccc(-c3ccc(F)cc3)n2n1", "yes (1)"],
  ["Cc1nc2cc(N3CCC(C(=O)NCc4cccs4)CC3)cnc2nc1C", "no (0)"],
  ["CC(C)N1CCN(Cc2ccc(C(=O)NCc3ccc(C(F)(F)F)cc3)cc2)C(=O)C1=O", "no (0)"],
  ["Cc1cc2nn(CC(=O)N(C)c3ccccc3)c(=O)n2c(Nc2ccc(C)c(C)c2)n1", "yes (1)"],
  ["O=C(c1cn(-c2cc(N3CCSCC3)ncn2)cn1)N1CCN(c2ccccc2)CC1", "yes (1)"],
  ["O=C(Nc1ccc2nc3n(c(=O)c2c1)CCCC3)Nc1ccc(F)cc1F", "no (0)"],
  ["COCC1CN(C2CCC2)CC12CCN(C(=O)c1ccc(C)s1)CC2 (stereo not given)", "no (0)"],
  ["CCNC(=O)c1n[nH]c2c1CCCC2", "no (0)"],
  ["Cc1ccc(C)c(N2CCN(c3cc(C(=O)O)c4cc(NS(C)(=O)=O)ccc4n3)CC2)c1", "yes (1)"],
  ["CCSc1nnc(-c2nn(C)c3c2CN(S(=O)(=O)c2ccc(OC)c(Cl)c2)CC3)n1CC", "yes (1)"],
  ["N#CCCSc1ccccc1NC(=O)c1ccc([N+](=O)[O-])s1", "yes (1)"],
  ["O=C(COc1ccc(Cl)cc1Cl)Nc1ccc2c(c1)N(C(=O)c1cccs1)CC2", "yes (1)"],
  ["CC(C)Cc1cc(-c2nn3c(-c4ccc(Cl)cc4)nnc3s2)n[nH]1", "yes (1)"]
]}
